- Tested on: 186277-243-T-J2-PDC complex spheroid viability
- assay: Anticancer human tumor 186277-243-T-J2-PDC patient-derived colon adenocarcinoma cell line growth inhibition [GQUAD]
- test_conditions: second compound 3.16 µM; first compound 0.0316 µM; stronger effect = lower value
viability, T/C strictly less than 60% = y. Otherwise n.

In: Criterion: viability, T/C strictly below 60%. Is it met by Cn1ncnc1[C@H]1c2n[nH]c(=O)c3cc(F)cc(c23)N[C@@H]1c1ccc(F)cc1 + Cc1cnc(CNC(=O)c2c(=O)c3ccc(N4CCCN(C)CC4)nc3n3c2sc2ccccc23)cn1 ?
Out: y

In: Criterion: viability, T/C strictly below 60%. Is it met by COc1ncnc(C2CC2)c1-c1ncc2cnn(Cc3ccc(-c4nc(C(F)(F)F)cn4C(C)C)cc3)c2n1 + Cc1[nH]c2ccc(F)cc2c1-c1nc2c3cccnc3c3ncccc3c2[nH]1 ?
Out: n

In: Criterion: viability, T/C strictly below 60%. Is it met by COc1cccc2c1C(=O)c1c(O)c3c(c(O)c1C2=O)CC(O)(C(=O)CO)CC3OC1CC(N)C(O)C(C)O1 (stereo unspecified) + Cc1cnc(CNC(=O)c2c(=O)c3ccc(N4CCCN(C)CC4)nc3n3c2sc2ccccc23)cn1 ?
Out: y

In: Criterion: viability, T/C strictly below 60%. Is it met by CC1COCCN1c1cc(C2(O)CC3CCC(C2)O3)c2cnn(-c3ccn[nH]3)c2n1 (stereo unspecified) + Cc1[nH]c2ccc(F)cc2c1-c1nc2c3cccnc3c3ncccc3c2[nH]1 ?
Out: y

In: Criterion: viability, T/C strictly below 60%. Is it met by C=CCn1c(=O)c2cnc(Nc3ccc(N4CCN(C)CC4)cc3)nc2n1-c1cccc(C(C)(C)O)n1 + Cc1[nH]c2ccc(F)cc2c1-c1nc2c3cccnc3c3ncccc3c2[nH]1 ?
Out: n

In: Criterion: viability, T/C strictly below 60%. Is it met by CC[C@@]1(O)C(=O)OCc2c1cc1n(c2=O)Cc2cc3c(CN(C)C)c(O)ccc3nc2-1 + Cc1[nH]c2ccc(F)cc2c1-c1nc2c3cccnc3c3ncccc3c2[nH]1 ?
Out: n

In: Criterion: viability, T/C strictly below 60%. Is it met by CC(C)(O)C1CCC(Nc2ccc3ncc(-c4cccc(C(F)(F)F)c4)n3n2)CC1 (stereo unspecified) + CN(C)c1ccc(Nc2c3ccc(NC(=O)CCN4CCCC4)cc3nc3cc(NC(=O)CCN4CCCC4)ccc23)cc1 ?
Out: n

In: Criterion: viability, T/C strictly below 60%. Is it met by C=CCn1c(=O)c2cnc(Nc3ccc(N4CCN(C)CC4)cc3)nc2n1-c1cccc(C(C)(C)O)n1 + CN(C)c1ccc(Nc2c3ccc(NC(=O)CCN4CCCC4)cc3nc3cc(NC(=O)CCN4CCCC4)ccc23)cc1 ?
Out: n

In: Criterion: viability, T/C strictly below 60%. Is it met by Cn1ncnc1[C@H]1c2n[nH]c(=O)c3cc(F)cc(c23)N[C@@H]1c1ccc(F)cc1 + Cc1[nH]c2ccc(F)cc2c1-c1nc2c3cccnc3c3ncccc3c2[nH]1 ?
Out: n

In: Criterion: viability, T/C strictly below 60%. Is it met by Nc1ccn(C2OC(CO)C(O)C2(F)F)c(=O)n1 (stereo unspecified) + CN(C)c1ccc(Nc2c3ccc(NC(=O)CCN4CCCC4)cc3nc3cc(NC(=O)CCN4CCCC4)ccc23)cc1 ?
Out: y

====

- System: 186277-243-T-J2-PDC complex spheroid viability
- assay: Anticancer human tumor 186277-243-T-J2-PDC cell line growth inhibition [GQUAD];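 also: spheroids exposed to drugs for 7 days; 100% = DMSO vehicle control viability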
- test_conditions: second compound 0.316 µM; first compound 0.1 µM; stronger effect = lower value
measure_name: viability, T/C (%)
# unit: % | format: bare number

Measured viability, T/C, CC(C)(O)C1CCC(Nc2ccc3ncc(-c4cccc(C(F)(F)F)c4)n3n2)CC1 (configuration not stated) + Cc1[nH]c2ccc(F)cc2c1-c1nc2c3cccnc3c3ncccc3c2[nH]1 : 110

Measured viability, T/C, CC1COCCN1c1cc(-c2ccnn2C)c2ccnc(-c3ccn[nH]3)c2n1 (configuration not stated) + CN(C)c1ccc(Nc2c3ccc(NC(=O)CCN4CCCC4)cc3nc3cc(NC(=O)CCN4CCCC4)ccc23)cc1 : 12.4

Measured viability, T/C, C=CC(=O)N1CCN(c2nc(=O)n(-c3c(C)ccnc3C(C)C)c3nc(-c4c(O)cccc4F)c(F)cc23)C(C)C1 (configuration not stated) + CN(C)c1ccc(Nc2c3ccc(NC(=O)CCN4CCCC4)cc3nc3cc(NC(=O)CCN4CCCC4)ccc23)cc1 : 94.6

Measured viability, T/C, COc1ccc([C@@H](O)c2cc(-c3ncnc4cc(N5CCOCC5)ccc34)c(F)cc2Cl)nn1 + Cc1[nH]c2ccc(F)cc2c1-c1nc2c3cccnc3c3ncccc3c2[nH]1 : 94.8

Measured viability, T/C, O=C(c1cc(Cc2n[nH]c(=O)c3ccccc23)ccc1F)N1CCN(C(=O)C2CC2)CC1 + Cc1cnc(CNC(=O)c2c(=O)c3ccc(N4CCCN(C)CC4)nc3n3c2sc2ccccc23)cn1 : 56.8

Measured viability, T/C, C=CC(=O)N1CCN(c2nc(=O)n(-c3c(C)ccnc3C(C)C)c3nc(-c4c(O)cccc4F)c(F)cc23)C(C)C1 (configuration not stated) + Cc1[nH]c2ccc(F)cc2c1-c1nc2c3cccnc3c3ncccc3c2[nH]1 : 110

Measured viability, T/C, Nc1ccn(C2OC(CO)C(O)C2(F)F)c(=O)n1 (configuration not stated) + Cc1[nH]c2ccc(F)cc2c1-c1nc2c3cccnc3c3ncccc3c2[nH]1 : 10.1

Measured viability, T/C, C#Cc1c(F)ccc2cc(O)cc(-c3ncc4c(N5CC6CCC(C5)N6)nc(OCC56CCCN5CC(F)C6)nc4c3F)c12 (configuration not stated) + Cc1cnc(CNC(=O)c2c(=O)c3ccc(N4CCCN(C)CC4)nc3n3c2sc2ccccc23)cn1 : 14.6

Measured viability, T/C, C=CC(=O)N1CCN(c2nc(=O)n(-c3c(C)ccnc3C(C)C)c3nc(-c4c(O)cccc4F)c(F)cc23)C(C)C1 (configuration not stated) + Cc1cnc(CNC(=O)c2c(=O)c3ccc(N4CCCN(C)CC4)nc3n3c2sc2ccccc23)cn1 : 58.7

Measured viability, T/C, O=C(c1cc(Cc2n[nH]c(=O)c3ccccc23)ccc1F)N1CCN(C(=O)C2CC2)CC1 + CN(C)c1ccc(Nc2c3ccc(NC(=O)CCN4CCCC4)cc3nc3cc(NC(=O)CCN4CCCC4)ccc23)cc1 : 111

Measured viability, T/C, O=c1[nH]cc(F)c(=O)[nH]1 + Cc1[nH]c2ccc(F)cc2c1-c1nc2c3cccnc3c3ncccc3c2[nH]1 : 101

Measured viability, T/C, Nc1ccn(C2OC(CO)C(O)C2(F)F)c(=O)n1 (configuration not stated) + CN(C)c1ccc(Nc2c3ccc(NC(=O)CCN4CCCC4)cc3nc3cc(NC(=O)CCN4CCCC4)ccc23)cc1 : 7.8

Measured viability, T/C, O=C(NO)c1cnc(N2CCN(S(=O)(=O)c3ccc4ccccc4c3)CC2)nc1 + Cc1[nH]c2ccc(F)cc2c1-c1nc2c3cccnc3c3ncccc3c2[nH]1 : 115

Measured viability, T/C, COc1cc(C2c3cc4c(cc3C(OC3OC5COC(C)OC5C(O)C3O)C3COC(=O)C23)OCO4)cc(OC)c1O (configuration not stated) + Cc1cnc(CNC(=O)c2c(=O)c3ccc(N4CCCN(C)CC4)nc3n3c2sc2ccccc23)cn1 : 69.8

Measured viability, T/C, Cc1cccc(N(C)C(=O)C2C(O)CCN2c2nc(C)cc(C(F)(F)F)c2C#N)c1 (configuration not stated) + CN(C)c1ccc(Nc2c3ccc(NC(=O)CCN4CCCC4)cc3nc3cc(NC(=O)CCN4CCCC4)ccc23)cc1 : 107

Measured viability, T/C, Cc1cccc(N(C)C(=O)C2C(O)CCN2c2nc(C)cc(C(F)(F)F)c2C#N)c1 (configuration not stated) + Cc1cnc(CNC(=O)c2c(=O)c3ccc(N4CCCN(C)CC4)nc3n3c2sc2ccccc23)cn1 : 84.1

Measured viability, T/C, Cc1cccc(N(C)C(=O)C2C(O)CCN2c2nc(C)cc(C(F)(F)F)c2C#N)c1 (configuration not stated) + Cc1[nH]c2ccc(F)cc2c1-c1nc2c3cccnc3c3ncccc3c2[nH]1 : 105

Measured viability, T/C, CCCS(=O)(=O)Nc1ccc(F)c(C(=O)c2c[nH]c3ncc(-c4ccc(Cl)cc4)cc23)c1F + Cc1cnc(CNC(=O)c2c(=O)c3ccc(N4CCCN(C)CC4)nc3n3c2sc2ccccc23)cn1 : 62.3

Measured viability, T/C, Nc1ccn(C2OC(CO)C(O)C2(F)F)c(=O)n1 (configuration not stated) + Cc1cnc(CNC(=O)c2c(=O)c3ccc(N4CCCN(C)CC4)nc3n3c2sc2ccccc23)cn1 : 28.4

Measured viability, T/C, CC1COCCN1c1cc(C2(O)CC3CCC(C2)O3)c2cnn(-c3ccn[nH]3)c2n1 (configuration not stated) + CN(C)c1ccc(Nc2c3ccc(NC(=O)CCN4CCCC4)cc3nc3cc(NC(=O)CCN4CCCC4)ccc23)cc1 : 8.92

Measured viability, T/C, O=c1[nH]cc(F)c(=O)[nH]1 + CN(C)c1ccc(Nc2c3ccc(NC(=O)CCN4CCCC4)cc3nc3cc(NC(=O)CCN4CCCC4)ccc23)cc1 : 94.5

Measured viability, T/C, COc1cc(C2c3cc4c(cc3C(OC3OC5COC(C)OC5C(O)C3O)C3COC(=O)C23)OCO4)cc(OC)c1O (configuration not stated) + Cc1[nH]c2ccc(F)cc2c1-c1nc2c3cccnc3c3ncccc3c2[nH]1 : 90.2
